target: Serine/threonine-protein kinase pim-1 (Homo sapiens); conditions: at 10 µM
Reported residual activity values for the following molecules.
Quick note: give the figure in %, leave out the unit.

Give residual activity for the following molecule: `O=C1NC(=O)/C(=C\c2ccc3nccnc3c2)S1` 10

Give residual activity for the following molecule: `Nc1ccc2ncnc(NCCc3ccc(Oc4ccccc4)cc3)c2c1` 93

Give residual activity for the following molecule: `CNc1cc2c(Nc3cccc(Br)c3)ncnc2cn1` 42

Give residual activity for the following molecule: `O=c1cc(-c2cccc3c2Sc2ccccc2S3)oc(N2CCOCC2)c1` 30

* * *

target: Serine/threonine-protein kinase haspin (Homo sapiens); settings: at 1 µM
Reported residual activity values for the following compounds.
Quick note: give the figure in %, leave out the unit.

As a guide, the following entries are already answered.
Cn1cc(/C=C2\C(=O)Nc3ccc(S(N)(=O)=O)cc32)c2ccccc21; 101
CC[n+]1c(/C=C/N(C)c2ccccc2)n(-c2ccccc2)c2ccc(-c3nc4ccccc4s3)cc21; 99
COc1cc2ncnc(Nc3ccc(NC(=O)c4ccccc4)cc3)c2cc1OC; 92

Give residual activity for the following compound: `CO[C@H]1[C@@H](OC)C[C@H](C)[C@@H](OC)C2=CC(=O)C=C(NC(=O)/C(C)=C/C=C/[C@H](OC)[C@@H](OC(N)=O)/C(C)=C/[C@@H]1C)C2=O` 88

Give residual activity for the following compound: `Cc1cc(Nc2nc(-c3ccccc3)nc3ccccc23)n[nH]1` 103

Give residual activity for the following compound: `CNc1cc2c(Nc3cccc(Br)c3)ncnc2cn1` 109

Give residual activity for the following compound: `Cc1nc(-c2ccccc2)c(-c2ccncc2)o1` 94

Give residual activity for the following compound: `CN(C)c1ccc(/C=C2\C(=O)Nc3ccccc32)cc1` 83

Give residual activity for the following compound: `COc1ccc(OC)c2c(=S)c3ccccc3[nH]c12` 114
